# Test system: Human ovarian cancer cell line SKOV3
# Protocol: Phototoxicity in SKOV3 cells after 660 nm laser or LED activation (AlamarBlue viability)
# Type: cell-based
# Experimental context: Homo sapiens, SK-OV-3, light or radiation study; SKOV3 cells; 24 hours uptake; 660 nm laser, 50 mW/cm^2 for 5 mins (15 J/cm^2); viability 24 hours after activation; read-out: Phototoxicity μM (IC90)
Property label: IC90 (µM)

>>> recorded_value("CCC1=C(C)c2cc3[nH]c(cc4nc(c(C)c5cc(C)c(cc1n2)[nH]5)[C@@H](CCC(=O)N(C)CCC[S+]([O-])[C@@H]1O[C@H](CO)[C@@H](O)[C@H](O)[C@H]1O)[C@@H]4C)c(C)c3CC (some centres unmarked)")
0.174
>>> recorded_value("CCC1=C(C)c2cc3[nH]c(cc4nc(c(C)c5cc(C)c(cc1n2)[nH]5)[C@@H](CCC(=O)N(C)CCOCCOCC[n+]1ccccc1)[C@@H]4C)c(C)c3CC")
0.006
>>> recorded_value("CCC1=C(C)c2cc3[nH]c(cc4nc(c(C)c5cc(C)c(cc1n2)[nH]5)[C@@H](CCC(=O)N(C)CCCO)[C@@H]4C)c(C)c3CC")
0.042
>>> recorded_value("CCC1=C(C)c2cc3[nH]c(cc4nc(c(C)c5cc(C)c(cc1n2)[nH]5)[C@@H](CCC(=O)N[C@H]1C(O)O[C@H](CO)[C@H](O)[C@@H]1O)[C@@H]4C)c(C)c3CC (some centres unmarked)")
0.049
>>> recorded_value("CCC1=C(C)c2cc3[nH]c(cc4nc(c(C)c5cc(C)c(cc1n2)[nH]5)[C@@H](CCCN)[C@@H]4C)c(C)c3CC")
0.01
>>> recorded_value("CCC1=C(C)c2cc3[nH]c(cc4nc(c(C)c5cc(C)c(cc1n2)[nH]5)[C@@H](CCC(=O)N(C)CCCOCCC[P+](c1ccccc1)(c1ccccc1)c1ccccc1)[C@@H]4C)c(C)c3CC")
0.003
>>> recorded_value("CCC1=C(C)c2cc3[nH]c(cc4nc(c(C)c5cc(C)c(cc1n2)[nH]5)[C@@H](CCC(=O)[O-])[C@@H]4C)c(C)c3CC.[Na+] [Compound 2, Reduced Phyllochlorin Sodium Salt]")
0.071
>>> recorded_value("CCC1=C(C)c2cc3[nH]c(cc4nc(c(C)c5[nH]c(cc1n2)c(C)c5C(=O)O)[C@@H](CCC(=O)O)[C@@H]4C)c(C)c3CC")
4.36
>>> recorded_value("CCC1=C(C)c2cc3[nH]c(cc4nc(c(C)c5cc(C)c(cc1n2)[nH]5)[C@@H](CCC(=O)N(C)CCOCCO[C@@H]1O[C@H](CO)[C@@H](O)[C@H](O)[C@H]1O)[C@@H]4C)c(C)c3CC")
0.102
>>> recorded_value("CCC1=C(C)c2cc3[nH]c(cc4nc(c(C)c5cc(C)c(cc1n2)[nH]5)[C@@H](CCC(=O)N(C)CCCO[C@@H]1O[C@H](CO)[C@@H](O)[C@H](O)[C@H]1O)[C@@H]4C)c(C)c3CC")
0.098
>>> recorded_value("CCC1=C(C)c2cc3[nH]c(cc4nc(c(C)c5cc(C)c(cc1n2)[nH]5)[C@@H](CCCO)[C@@H]4C)c(C)c3CC [Compound 20, Reduced Phyllochlorin 3-hydroxypropyl]")
0.063

----------
# Test system: Human ovarian cancer cell line SKOV3
# Protocol: Inherent cytotoxicity (dark toxicity) in SKOV3 cells (AlamarBlue viability)
# Assay type: cell-based
# Experimental context: human, 24 h
Strictly below 5 µM in Dark toxicity μM (IC10): 1 (yes). Otherwise: 0 (no).

>>> class("CCC1=C(C)c2cc3[nH]c(cc4nc(c(C)c5cc(C)c(cc1n2)[nH]5)[C@@H](CCC(=O)N[C@@H]1C(O)O[C@H](CO)[C@@H](O)[C@@H]1O)[C@@H]4C)c(C)c3CC (stereo partly shown) [Compound 15]")
"0 (no)"
>>> class("CCC1=C(C)c2cc3[nH]c(cc4nc(c(C)c5cc(C)c(cc1n2)[nH]5)[C@@H](CCC(=O)N(C)CCCO[C@@H]1O[C@H](CO)[C@@H](O)[C@H](O)[C@H]1O)[C@@H]4C)c(C)c3CC [Compound 9]")
"0 (no)"
>>> class("CCC1=C(C)c2cc3[nH]c(cc4nc(c(C)c5cc(C)c(cc1n2)[nH]5)[C@@H](CCC(=O)N(C)CCCCCCCCCC[P+](c1ccccc1)(c1ccccc1)c1ccccc1)[C@@H]4C)c(C)c3CC [Compound 21]")
"1 (yes)"
>>> class("CCC1=C(C)c2cc3[nH]c(cc4nc(c5c6[nH]c(cc1n2)c(C)c6C(=O)OC5)[C@@H](CCC(=O)O)[C@@H]4C)c(C)c3CC [Compound 39, Reduced Chlorin K]")
"0 (no)"
>>> class("CCC1=C(C)c2cc3[nH]c(cc4nc(c(C)c5cc(C)c(cc1n2)[nH]5)[C@@H](CCC(=O)N(C)CCCO)[C@@H]4C)c(C)c3CC [Compound 22]")
"1 (yes)"
>>> class("CCC1=C(C)c2cc3[nH]c(cc4nc(c(C)c5cc(C)c(cc1n2)[nH]5)[C@@H](CCC(=O)N(C)CCCCCO)[C@@H]4C)c(C)c3CC [Compound 23]")
"1 (yes)"
>>> class("CCC1=C(C)c2cc3[nH]c(cc4nc(c(C)c5cc(C)c(cc1n2)[nH]5)[C@@H](CCC(=O)N(C)CCOCCOCCO)[C@@H]4C)c(C)c3CC [Compound 12]")
"0 (no)"
>>> class("CCC1=C(C)c2cc3[nH]c(cc4nc(c(C)c5cc(C)c(cc1n2)[nH]5)[C@@H](CCC(=O)N(C)CCCS[C@@H]1O[C@H](CO)[C@@H](O)[C@H](O)[C@H]1O)[C@@H]4C)c(C)c3CC [Compound 4]")
"1 (yes)"
>>> class("CCC1=C(C)c2cc3[nH]c(cc4nc(c(C)c5cc(C)c(cc1n2)[nH]5)[C@@H](CCC(=O)N(C)CCC[S+]([O-])[C@@H]1O[C@H](CO)[C@@H](O)[C@H](O)[C@H]1O)[C@@H]4C)c(C)c3CC (stereo partly shown) [Compound 17]")
"1 (yes)"

----------
# System: Human ovarian cancer cell line SKOV3
# Protocol: Inherent cytotoxicity (dark toxicity) in SKOV3 cells (AlamarBlue viability)
# Assay type: cell-based
# Experimental context: human, 24 h
Entries and their Dark toxicity μM (IC10)
Property label: Dark toxicity μM (IC10)

>>> recorded_value("CCC1=C(C)c2cc3[nH]c(cc4nc(c(C)c5cc(C)c(cc1n2)[nH]5)[C@@H](CCCN)[C@@H]4C)c(C)c3CC")
"3.946 µM"
>>> recorded_value("CCC1=C(C)c2cc3[nH]c(cc4nc(c(C)c5cc(C)c(cc1n2)[nH]5)[C@@H](CCC(=O)N(C)CCO)[C@@H]4C)c(C)c3CC")
"15.940 µM"
>>> recorded_value("C=Cc1c(C)c2cc3nc(c(CC(=O)N[C@@H](CC(=O)O)C(=O)O)c4[nH]c(cc5nc(cc1[nH]2)C(C)=C5CC)c(C)c4C(=O)O)[C@@H](CCC(=O)O)[C@@H]3C [Talaporfin sodium, reference compound]")
"11.10 µM"
>>> recorded_value("CCC1=C(C)c2cc3[nH]c(cc4nc(c5c6[nH]c(cc1n2)c(C)c6C(=O)OC5)[C@@H](CCC(=O)N(C)CCCS[C@@H]1O[C@H](CO)[C@@H](O)[C@H](O)[C@H]1O)[C@@H]4C)c(C)c3CC")
"3.222 µM"
>>> recorded_value("CCC1=C(C)c2cc3[nH]c(cc4nc(c(C)c5[nH]c(cc1n2)c(C)c5C(=O)O)[C@@H](CCC(=O)O)[C@@H]4C)c(C)c3CC")
"12.200 µM"
>>> recorded_value("CCC1=C(C)c2cc3[nH]c(cc4nc(c(C)c5cc(C)c(cc1n2)[nH]5)[C@@H](CCC(=O)N[C@H]1C(O)O[C@H](CO)[C@H](O)[C@@H]1O)[C@@H]4C)c(C)c3CC (some centres unmarked)")
"7.011 µM"
>>> recorded_value("CCC1=C(C)c2cc3[nH]c(cc4nc(c(C)c5cc(C)c(cc1n2)[nH]5)[C@@H](CCC(=O)N[C@H]1C(O)O[C@H](CO)[C@@H](O)[C@@H]1O)[C@@H]4C)c(C)c3CC (some centres unmarked)")
"13.330 µM"
>>> recorded_value("CCC1=C(C)c2cc3[nH]c(cc4nc(c(C)c5cc(C)c(cc1n2)[nH]5)[C@@H](CCC[P+](c1ccccc1)(c1ccccc1)c1ccccc1)[C@@H]4C)c(C)c3CC")
"1.326 µM"
>>> recorded_value("CCC1=C(C)c2cc3[nH]c(cc4nc(c(C)c5cc(C)c(cc1n2)[nH]5)[C@@H](CCC(=O)N(C)CCOCCOCCOCCOCCOCCOC)[C@@H]4C)c(C)c3CC")
"3.940 µM"
>>> recorded_value("CCC1=C(C)c2cc3[nH]c(cc4nc(c(C)c5cc(C)c(cc1n2)[nH]5)[C@@H](CCC(=O)N(C)CCOCCOCC[P+](c1ccccc1)(c1ccccc1)c1ccccc1)[C@@H]4C)c(C)c3CC")
"3.205 µM"
>>> recorded_value("CCC1=C(C)c2cc3[nH]c(cc4nc(c(C)c5cc(C)c(cc1n2)[nH]5)[C@@H](CCC(=O)N(C)CCOCCO[C@@H]1O[C@H](CO)[C@@H](O)[C@H](O)[C@H]1O)[C@@H]4C)c(C)c3CC")
"18.440 µM"
